Record form. Attribute: inhibition. Fill in for each entry.
Target: Serine/threonine-protein kinase tousled-like 2 (Homo sapiens) (UniProt Q86UE8)
Sequence (Q86UE8 whole entry, looked up): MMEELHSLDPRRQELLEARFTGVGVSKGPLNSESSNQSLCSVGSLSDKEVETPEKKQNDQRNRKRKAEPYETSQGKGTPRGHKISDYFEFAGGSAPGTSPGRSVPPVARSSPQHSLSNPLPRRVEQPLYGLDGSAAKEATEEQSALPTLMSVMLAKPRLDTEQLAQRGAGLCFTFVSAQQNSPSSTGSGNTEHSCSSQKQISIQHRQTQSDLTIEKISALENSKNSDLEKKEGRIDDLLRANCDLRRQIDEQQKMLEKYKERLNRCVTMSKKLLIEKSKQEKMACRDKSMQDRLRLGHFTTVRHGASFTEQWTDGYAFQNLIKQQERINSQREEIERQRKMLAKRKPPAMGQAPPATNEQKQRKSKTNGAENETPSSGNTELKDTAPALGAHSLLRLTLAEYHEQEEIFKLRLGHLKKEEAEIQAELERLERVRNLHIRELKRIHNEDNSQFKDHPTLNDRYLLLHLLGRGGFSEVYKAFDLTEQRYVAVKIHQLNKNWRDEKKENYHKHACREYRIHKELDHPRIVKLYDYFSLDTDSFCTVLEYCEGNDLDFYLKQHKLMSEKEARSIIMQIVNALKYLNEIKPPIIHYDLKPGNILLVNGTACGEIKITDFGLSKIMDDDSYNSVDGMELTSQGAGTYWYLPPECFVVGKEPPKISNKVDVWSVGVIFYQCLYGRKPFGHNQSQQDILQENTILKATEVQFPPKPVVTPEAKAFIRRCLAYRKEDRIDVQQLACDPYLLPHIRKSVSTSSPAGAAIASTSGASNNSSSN
Test: Competitive binding affinity to TLK2 (unknown origin) at 10 uM in presence of ATP relative to control

// inhibition lookup, key: `O[C@H]1CC[C@H](Nc2nccc(-n3ncc4ccccc43)n2)CC1` < 50%

// inhibition lookup, key: `O[C@H]1CC[C@H](Nc2nccc(-c3n[nH]c4ccccc34)n2)CC1` 96%

// inhibition lookup, key: `O[C@H]1CC[C@H](Nc2nccc(-n3nnc4ccccc43)n2)CC1` < 50%

// inhibition lookup, key: `O[C@H]1CC[C@H](Nc2nccc(-n3ccc4ccccc43)n2)CC1` < 50%

Entry source: ChEMBL document CHEMBL2424622
